Assay: Pharmacokinetic evaluation in rats
Type: in vivo
Conditions: male, Sprague-Dawley, rat, plasma, po, 3 mg/kg, 3 mg/kg by gavage, group G2, rat 6
reportedProperty: AUC(0-t) (ng·h/mL)

a = [2H]C1([2H])COCC([2H])([2H])N1c1ccc(Nc2nccc(-c3ccc(C(=O)NCC#N)cc3)n2)cc1
b = N#CCNC(=O)c1ccc(-c2ccnc(Nc3ccc(N4CCOCC4)cc3)n2)cc1 [example 9, reference compound]
[in] Hi, I'm comparing a with b and wondering which one has the bigger number for AUC(0-t). Any idea? // caller expects the label of the chosen entry
[out] a

----------
Test: Pharmacokinetic evaluation in rats
Type: in vivo
Conditions: male, Sprague-Dawley, rat, plasma, po, 3 mg/kg, 3 mg/kg by gavage, group G3, rat 12
reportedProperty: AUC(0-t) (ng·h/mL)

N#CCNC(=O)c1ccc(-c2ccnc(Nc3ccc(N4CCOCC4)cc3)n2)cc1 [example 9, reference compound] : 1810
[2H]C1([2H])OC([2H])([2H])C([2H])([2H])N(c2ccc(Nc3nccc(-c4ccc(C(=O)NCC#N)cc4)n3)cc2)C1([2H])[2H] : 3240
[2H]C([2H])(C#N)NC(=O)c1ccc(-c2ccnc(Nc3ccc(N4C([2H])([2H])C([2H])([2H])OC([2H])([2H])C4([2H])[2H])cc3)n2)cc1 : 2290

----------
Assay: Pharmacokinetic evaluation in rats
Type: in vivo
Conditions: male, Sprague-Dawley, rat, plasma, po, 3 mg/kg, 3 mg/kg by gavage, group G2, Mean of 4 rats
reportedProperty: Cmax (ng/mL)

a = [2H]C1([2H])COCC([2H])([2H])N1c1ccc(Nc2nccc(-c3ccc(C(=O)NCC#N)cc3)n2)cc1
b = N#CCNC(=O)c1ccc(-c2ccnc(Nc3ccc(N4CCOCC4)cc3)n2)cc1 [example 9, reference compound]
[in] Hi, I'm comparing a with b and wondering which one has the bigger number for Cmax. Any idea? // caller expects the label of the chosen entry
[out] a
(a: 972 ng/mL, b: 589 ng/mL)

----------
Assay: Pharmacokinetic evaluation in rats
Format: in vivo
Conditions: male, Sprague-Dawley, rat, plasma, po, 3 mg/kg, 3 mg/kg by gavage, group G2, rat 5, read-out: AUCINF_obs
reportedProperty: AUC(0-inf) (ng·h/mL)

I = [2H]C1([2H])COCC([2H])([2H])N1c1ccc(Nc2nccc(-c3ccc(C(=O)NCC#N)cc3)n2)cc1 [example 5]
II = N#CCNC(=O)c1ccc(-c2ccnc(Nc3ccc(N4CCOCC4)cc3)n2)cc1 [example 9, reference compound]
[in] Hi, I'm comparing I with II and wondering which one has the bigger number for AUC(0-inf). Any idea? // caller expects the label of the chosen entry
[out] I

----------
Assay: Pharmacokinetic evaluation in rats
Type: in vivo
Details: male, Sprague-Dawley, rat, plasma, po, 3 mg/kg, 3 mg/kg by gavage, group G1, rat 1
reportedProperty: Tmax (min)

[2H]C([2H])(C#N)NC(=O)c1ccc(-c2ccnc(Nc3ccc(N4CCOCC4)cc3)n2)cc1 [example 8] : 15
N#CCNC(=O)c1ccc(-c2ccnc(Nc3ccc(N4CCOCC4)cc3)n2)cc1 [example 9, reference compound] : 15
[2H]C([2H])(C#N)NC(=O)c1ccc(-c2ccnc(Nc3ccc(N4CC([2H])([2H])OC([2H])([2H])C4)cc3)n2)cc1 [example 6] : 15
